- Test Target: PI3Kα (alpha) (Homo sapiens (Human))
- Test Name: p110α (alpha) PI3K Binding Assay (ADP-Glo lipid kinase reaction)
- Format: biochemical
- Assay Conditions: PI3K alpha 0.2 nM, ATP 40 μM, PIP2:3PS 50 μM, 120 min, room temperature; Ki by Morrison Equation; read-out: PI3Kα-(alpha) ATP (Ki) micromolar
pKi: −log10 of the molar value.
Measurement Label: pKi

Solved cases (3 shown):
Looking for the measured pKi of CC[C@H](C(N)=O)n1cc(-c2cc3c4c(c2)nc(-c2ccc5oc(N)nc5n2)n4CCCCO3)cn1 (single isomer, unassigned) [Example 302] , can you help?
9.99

Looking for the measured pKi of NC(=O)[C@@H](Nc1cc2c3c(c1)nc(-c1cc(Cl)c4oc(N)nc4c1)n3CCCO2)C1CC1 [Example 209] , can you help?
10.02

Looking for the measured pKi of COC(=O)c1cc(-c2nc3cc(N[C@H](C(N)=O)C4CC4)cc4c3n2CCCO4)ccc1OC [Example 158] , can you help?
6.69

P = COc1ncc(-c2nc3cc(N[C@H](C(N)=O)C4CC4)cc4c3n2CCCO4)cn1 [Example 128]
Q = Cn1cc(-c2nc3cc(N[C@H](C(N)=O)C4CC4)cc4c3n2CCCO4)ccc1=O [Example 147]
R = N#Cc1cccc(-c2nc3cc(N[C@H](C(N)=O)C4CC4)cc4c3n2CCCO4)c1 [Example 118]
S = COc1ccc(CNC(=O)[C@@H]2CCCN2c2cc3c4c(c2)nc(-c2ccc5oc(N)nc5c2)n4CCCO3)cc1 [Example 236]
T = C[C@H](Oc1cc2c3c(nc(-c4ccc5oc(N)nc5c4)n3CCCO2)c1F)C(N)=O [Example 240]
Rank ascending by pKi. Record the ranking as a list of labels in the requested order.
R, Q, P, S, T
(R: 6.25, Q: 6.86, P: 7.13, S: 7.68, T: 8.79)

----------
Items are presented alongside their recorded pKi.
- Test Target: PI3Kα (alpha) (Homo sapiens (Human), UniProt P42336)
- Sequence (P42336 whole entry): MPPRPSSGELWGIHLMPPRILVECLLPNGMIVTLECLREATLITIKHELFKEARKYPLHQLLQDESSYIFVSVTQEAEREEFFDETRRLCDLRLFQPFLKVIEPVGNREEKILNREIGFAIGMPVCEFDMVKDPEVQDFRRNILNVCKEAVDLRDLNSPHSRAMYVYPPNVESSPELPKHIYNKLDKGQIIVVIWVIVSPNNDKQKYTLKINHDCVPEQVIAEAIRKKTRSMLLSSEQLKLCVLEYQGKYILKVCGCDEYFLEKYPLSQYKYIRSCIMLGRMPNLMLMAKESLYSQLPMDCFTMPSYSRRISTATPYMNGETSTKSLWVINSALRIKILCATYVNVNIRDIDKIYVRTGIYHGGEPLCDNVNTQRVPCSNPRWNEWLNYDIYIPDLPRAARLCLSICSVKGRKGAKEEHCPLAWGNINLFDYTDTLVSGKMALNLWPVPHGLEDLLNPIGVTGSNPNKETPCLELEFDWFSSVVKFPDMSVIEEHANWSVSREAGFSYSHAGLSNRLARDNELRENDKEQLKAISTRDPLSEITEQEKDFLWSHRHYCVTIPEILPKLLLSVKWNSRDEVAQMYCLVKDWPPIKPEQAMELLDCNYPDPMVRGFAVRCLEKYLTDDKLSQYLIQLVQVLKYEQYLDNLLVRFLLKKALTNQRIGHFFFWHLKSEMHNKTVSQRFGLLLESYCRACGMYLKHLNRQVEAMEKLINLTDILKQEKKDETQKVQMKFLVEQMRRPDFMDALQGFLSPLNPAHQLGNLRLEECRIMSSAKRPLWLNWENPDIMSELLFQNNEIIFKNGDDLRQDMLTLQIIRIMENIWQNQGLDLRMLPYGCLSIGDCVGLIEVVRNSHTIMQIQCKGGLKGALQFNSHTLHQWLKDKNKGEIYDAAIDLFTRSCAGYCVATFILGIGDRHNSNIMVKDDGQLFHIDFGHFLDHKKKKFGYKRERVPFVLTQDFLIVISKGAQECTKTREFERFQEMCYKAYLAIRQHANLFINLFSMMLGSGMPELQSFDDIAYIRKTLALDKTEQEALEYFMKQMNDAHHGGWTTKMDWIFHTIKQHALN
- Sequence (P27986 whole entry partner): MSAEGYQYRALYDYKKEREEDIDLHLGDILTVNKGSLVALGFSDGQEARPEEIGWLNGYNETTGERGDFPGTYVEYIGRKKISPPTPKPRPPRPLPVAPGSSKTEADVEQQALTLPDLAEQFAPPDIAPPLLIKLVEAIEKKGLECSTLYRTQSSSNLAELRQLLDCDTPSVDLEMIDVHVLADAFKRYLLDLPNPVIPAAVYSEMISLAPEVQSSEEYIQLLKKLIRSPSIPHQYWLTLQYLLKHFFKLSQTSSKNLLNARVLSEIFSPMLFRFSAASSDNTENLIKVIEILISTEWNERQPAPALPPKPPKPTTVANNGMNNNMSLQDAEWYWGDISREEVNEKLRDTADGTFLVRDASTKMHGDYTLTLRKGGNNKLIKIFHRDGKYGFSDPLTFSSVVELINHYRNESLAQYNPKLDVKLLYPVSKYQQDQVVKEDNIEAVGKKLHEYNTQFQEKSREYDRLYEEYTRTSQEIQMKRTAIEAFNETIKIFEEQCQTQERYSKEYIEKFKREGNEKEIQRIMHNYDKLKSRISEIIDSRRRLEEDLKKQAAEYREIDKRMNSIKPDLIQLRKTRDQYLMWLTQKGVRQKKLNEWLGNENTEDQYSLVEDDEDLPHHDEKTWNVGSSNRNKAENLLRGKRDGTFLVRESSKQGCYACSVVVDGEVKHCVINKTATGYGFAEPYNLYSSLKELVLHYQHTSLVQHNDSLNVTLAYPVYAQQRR
- Test Name: p110α (alpha) PI3K Binding Assay (ADP-Glo lipid kinase reaction)
- Format: biochemical
- Assay Conditions: PI3K alpha 0.2 nM, ATP 40 μM, PIP2:3PS 50 μM, 120 min, room temperature; Ki by Morrison Equation; read-out: PI3Kα-(alpha) ATP (Ki) micromolar
pKi: −log10 of the molar value.

Looking for the measured pKi of CC[C@H](Oc1cc2c3c(c1)nc(-c1ccc4oc(N)nc4c1)n3CCCCO2)C(N)=O [Example 271] , can you help?
> 10.70

Looking for the measured pKi of C[C@H](Oc1cc2c3c(c1)nc(-c1ccc(-c4nc[nH]n4)c(F)c1)n3CCCCO2)C(N)=O [Example 269] , can you help?
> 10.70

---
Looking for the measured pKi of NC(=O)[C@@H](Nc1cc2c3c(c1)nc(-c1ccc4sc(N)nc4c1)n3CCCCO2)C1CC1 [Example 246] , can you help?
> 10.70

Looking for the measured pKi of C[C@@H](C(N)=O)N(C)c1cc2c3c(c1)nc(-c1cc(F)c4oc(N)nc4c1)n3CCCCO2 [Example 264] , can you help?
> 10.70

Looking for the measured pKi of NC(=O)[C@@H](Nc1cc2c3c(c1)nc(-c1ccc4nc(N)sc4c1)n3CCCCO2)C1CC1 [Example 214] , can you help?
> 10.70
